Target: T1, IL10Rα and IL2Rγ on human primary cells (CD8 T cells, CD4 T cells, monocytes) (human) (UniProt Q13651)
T1 sequence (looked up) 1: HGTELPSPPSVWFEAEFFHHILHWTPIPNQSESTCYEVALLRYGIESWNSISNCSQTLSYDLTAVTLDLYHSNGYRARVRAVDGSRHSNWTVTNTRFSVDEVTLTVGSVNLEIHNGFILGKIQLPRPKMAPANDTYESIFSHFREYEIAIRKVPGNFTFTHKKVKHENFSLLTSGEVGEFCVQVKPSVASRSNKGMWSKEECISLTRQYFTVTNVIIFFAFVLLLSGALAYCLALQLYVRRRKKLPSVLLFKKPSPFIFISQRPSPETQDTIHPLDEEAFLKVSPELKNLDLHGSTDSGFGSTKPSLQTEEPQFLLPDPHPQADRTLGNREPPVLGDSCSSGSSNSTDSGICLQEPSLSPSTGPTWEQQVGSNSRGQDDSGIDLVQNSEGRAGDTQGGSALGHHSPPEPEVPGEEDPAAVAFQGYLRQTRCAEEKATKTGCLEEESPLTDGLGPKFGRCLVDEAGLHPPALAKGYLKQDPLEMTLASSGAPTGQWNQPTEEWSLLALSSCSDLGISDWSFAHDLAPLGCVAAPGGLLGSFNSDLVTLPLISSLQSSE
T1 sequence (looked up) 2: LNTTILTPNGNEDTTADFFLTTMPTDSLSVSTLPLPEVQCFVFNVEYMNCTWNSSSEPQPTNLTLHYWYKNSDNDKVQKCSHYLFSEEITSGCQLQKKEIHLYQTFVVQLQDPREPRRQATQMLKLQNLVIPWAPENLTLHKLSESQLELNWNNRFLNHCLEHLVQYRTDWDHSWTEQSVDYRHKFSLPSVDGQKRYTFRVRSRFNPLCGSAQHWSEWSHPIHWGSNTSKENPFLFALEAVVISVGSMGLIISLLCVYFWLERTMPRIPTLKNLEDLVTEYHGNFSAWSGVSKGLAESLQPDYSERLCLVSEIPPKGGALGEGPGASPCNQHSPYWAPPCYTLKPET
Test: cell-based or functional assay
Recorded pSTAT3 (MFI) in CD4 T cells at 0.1 µM for the following binders
Dear colleague, please return just the value in MFI, with no unit written.

Worked cases, pSTAT3 (MFI) in CD4 T cells at 0.1 µM given:
[
  {
    "binder": "hIL10Ra_VHH14-hIL2Rg_VHH19, linker …, tag his (bispecific antibody, not shown: small tags and cut ends) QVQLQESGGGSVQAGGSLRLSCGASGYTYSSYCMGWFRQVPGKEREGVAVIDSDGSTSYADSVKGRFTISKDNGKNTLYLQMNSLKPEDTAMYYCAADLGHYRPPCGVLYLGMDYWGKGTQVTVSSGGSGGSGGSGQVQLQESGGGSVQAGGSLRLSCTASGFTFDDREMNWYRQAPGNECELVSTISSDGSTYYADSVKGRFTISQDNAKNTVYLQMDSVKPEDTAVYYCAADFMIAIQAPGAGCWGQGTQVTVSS",
    "pSTAT3 (MFI) in CD4 T cells at 0.1 µM": 10200
  },
  {
    "binder": "hIL10Ra_VHH14-hIL2Rg_VHH19, linker GGSGGS, tag his (bispecific antibody, not shown: small tags and cut ends) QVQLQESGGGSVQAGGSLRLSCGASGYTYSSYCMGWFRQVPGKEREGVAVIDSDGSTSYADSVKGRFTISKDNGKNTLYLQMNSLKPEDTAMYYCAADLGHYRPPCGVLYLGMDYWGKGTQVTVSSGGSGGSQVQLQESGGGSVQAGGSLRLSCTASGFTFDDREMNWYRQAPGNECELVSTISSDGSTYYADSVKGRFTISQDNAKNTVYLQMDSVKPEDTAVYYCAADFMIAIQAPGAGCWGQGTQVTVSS",
    "pSTAT3 (MFI) in CD4 T cells at 0.1 µM": 13600
  },
  {
    "binder": "hIL10Ra_VHH14-hIL2Rg_VHH19, linker GS, tag his (bispecific antibody, not shown: small tags and cut ends) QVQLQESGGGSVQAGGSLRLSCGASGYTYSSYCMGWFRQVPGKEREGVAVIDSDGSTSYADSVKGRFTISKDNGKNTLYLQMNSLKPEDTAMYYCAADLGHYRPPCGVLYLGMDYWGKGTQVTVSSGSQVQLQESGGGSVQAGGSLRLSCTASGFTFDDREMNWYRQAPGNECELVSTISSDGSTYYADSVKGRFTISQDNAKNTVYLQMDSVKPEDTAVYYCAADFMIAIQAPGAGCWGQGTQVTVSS",
    "pSTAT3 (MFI) in CD4 T cells at 0.1 µM": 10900
  },
  {
    "binder": "hIL10Ra_VHH14-hIL2Rg_VHH19, no linker, tag his (bispecific antibody, not shown: small tags and cut ends) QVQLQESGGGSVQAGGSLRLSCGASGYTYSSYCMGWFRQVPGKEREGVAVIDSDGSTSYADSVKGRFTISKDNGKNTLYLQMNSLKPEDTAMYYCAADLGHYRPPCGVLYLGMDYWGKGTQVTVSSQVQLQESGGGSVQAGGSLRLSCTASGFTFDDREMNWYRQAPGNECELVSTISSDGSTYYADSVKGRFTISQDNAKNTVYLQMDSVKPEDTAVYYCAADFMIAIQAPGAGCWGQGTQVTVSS",
    "pSTAT3 (MFI) in CD4 T cells at 0.1 µM": 11000
  },
  {
    "binder": "hIL10Ra_VHH14-hIL2Rg_VHH19, linker GGGS, tag Fc (Fc fusion, not shown: a dimerising Fc or GST) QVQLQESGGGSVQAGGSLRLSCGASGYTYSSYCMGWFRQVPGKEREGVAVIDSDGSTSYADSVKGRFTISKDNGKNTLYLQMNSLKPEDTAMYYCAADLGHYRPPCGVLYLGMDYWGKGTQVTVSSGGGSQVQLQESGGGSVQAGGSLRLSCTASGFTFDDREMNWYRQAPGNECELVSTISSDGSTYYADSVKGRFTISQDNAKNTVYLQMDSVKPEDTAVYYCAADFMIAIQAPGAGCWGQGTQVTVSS",
    "pSTAT3 (MFI) in CD4 T cells at 0.1 µM": 11300
  },
  {
    "binder": "hIL10Ra_VHH14-hIL2Rg_VHH19, linker GGGSGGGS, tag his (bispecific antibody, not shown: small tags and cut ends) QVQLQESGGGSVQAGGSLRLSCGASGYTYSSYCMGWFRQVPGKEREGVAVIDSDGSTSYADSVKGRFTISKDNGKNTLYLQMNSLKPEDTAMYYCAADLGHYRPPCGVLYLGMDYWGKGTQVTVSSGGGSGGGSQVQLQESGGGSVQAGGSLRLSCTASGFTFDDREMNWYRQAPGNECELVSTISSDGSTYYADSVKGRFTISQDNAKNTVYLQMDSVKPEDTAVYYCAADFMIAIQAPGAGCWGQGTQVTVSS",
    "pSTAT3 (MFI) in CD4 T cells at 0.1 µM": 11300
  }
]

Then there is this binder:
Task: Fill blank: measured pSTAT3 (MFI) in CD4 T cells at 0.1 µM of the binder hIL10Ra_VHH14-hIL2Rg_VHH19, linker GGGS, tag his (bispecific antibody, not shown: small tags and cut ends) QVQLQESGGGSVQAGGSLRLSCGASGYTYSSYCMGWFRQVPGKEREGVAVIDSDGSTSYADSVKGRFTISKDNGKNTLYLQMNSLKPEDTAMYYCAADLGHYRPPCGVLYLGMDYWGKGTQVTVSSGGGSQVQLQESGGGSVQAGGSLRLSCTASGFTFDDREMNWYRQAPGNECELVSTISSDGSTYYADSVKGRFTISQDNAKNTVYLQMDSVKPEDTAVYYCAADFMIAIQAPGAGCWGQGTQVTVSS is ____.
Result: 9670
